- assaySummary: chemical genetic growth profiling, strain panel (AID 1159580);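 further: tested at 20 µM; growth read once vehicle control cultures reached saturation at 30 °C; 1 = growth at the plate median or of vehicle wells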
- details: S. cerevisiae deletion strains, growth OD, locus YAL021C, strain ccr4, stronger effect = lower value
Among all 5,500 compounds or so, about 2,000 (36%) were called active. Roughly 18% stayed inconclusive and do not appear here. Some of the results follow.
Binary call on normalized growth with cut-off 0.07: strictly below means true (1), and equality or higher means false (0).

The examples below pair each entry with its known result.
molecule	group
C[C@H]1[C@H]2CCC3C4CC=C5C[C@@H](N(C)C)CC[C@]5(C)C4CC[C@@]32CN1C (stereo partly specified)	false (0)
Oc1ccc(Cl)c2cccnc12	false (0)
Oc1c(Br)cc(Br)c2cccnc12	true (1)
CC(=O)Nc1ccc(S(=O)(=O)c2ccc(NC(C)=O)cc2)cc1	false (0)
CC1(C)CCCC2(C)C3C1[C@@H](O)C2(C)C[C@H]3O (stereo partly specified)	false (0)

Incoming: Does the reported normalized growth of the following molecule sit strictly below 0.07? "Cc1ccc2c(Cl)cc(Cl)c(O)c2n1"
Outgoing: false (0)
